Data provenance is patent US20230159502A1.

Exercise: state measured EC50 for each of the compounds provided.
# target.under.test: NL20 human bronchial epithelial cells expressing human Z-AAT (Homo sapiens, UniProt P01009, E366K)
# Construct: doxycycline added with compounds)
# Sequence (P01009 25-418 E366K): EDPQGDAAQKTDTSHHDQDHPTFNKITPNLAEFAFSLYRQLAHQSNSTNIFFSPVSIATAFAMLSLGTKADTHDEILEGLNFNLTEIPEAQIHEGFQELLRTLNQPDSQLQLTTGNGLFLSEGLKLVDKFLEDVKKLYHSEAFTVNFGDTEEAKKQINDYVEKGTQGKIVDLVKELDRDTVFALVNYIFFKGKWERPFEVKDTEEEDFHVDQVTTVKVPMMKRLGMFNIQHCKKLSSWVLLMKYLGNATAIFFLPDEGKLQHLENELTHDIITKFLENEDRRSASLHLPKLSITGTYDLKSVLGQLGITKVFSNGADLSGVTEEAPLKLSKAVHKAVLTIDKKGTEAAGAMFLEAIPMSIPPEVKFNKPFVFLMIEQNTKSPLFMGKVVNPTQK
# test: AAT Function Assay (MSD Assay NL20-SI Cell Line)
# experimental.parameters: read-out: NL20 Functional EC50

Here are 10 compounds together with their reported answers.
N#CCC1(c2c(-c3ccc(C(=O)O)cc3)c3c(O)c(F)ccc3n2-c2ccc(F)c(F)c2)CCC1    < 500 nM
Cc1cc(-n2c(C(C)C)c(C3CC4(CC(C(=O)O)C4)C3)c3ccc(F)cc32)ccc1F (stereo not drawn)    > 2000 nM
N#Cc1cc(-c2c(C3CCOCC3)n(-c3ccc(C(=O)O)cc3)c3c(O)cccc23)ccc1F    500 to 2000 nM
COCC1(c2c(-c3ccc(C(=O)O)c(Cl)c3)c3c(O)cc(F)cc3n2-c2ccc(F)c(OC)c2)CCC1    < 500 nM
Cc1cc(-n2c(C3CCOCC3)c(-c3ccc(C(=O)O)s3)c3c(O)c(F)ccc32)ccc1F    < 500 nM
CC(O)C(C)(C)c1c(-c2ccc(C(=O)O)cc2)c2c(O)cc(F)cc2n1-c1ccc(F)c(F)c1 (stereo not drawn)    500 to 2000 nM
NC(=O)c1ccc(-c2c(C3CCOCC3)n(-c3ccc(F)c(F)c3)c3cc(F)cc(O)c23)c(F)c1    < 500 nM
O=C(O)c1ccc(-c2c(C34CCCC(C3)OC4)n(-c3ccc(F)c(F)c3)c3cc(F)cc(O)c23)cc1 (stereo not drawn)    < 500 nM
Cc1cc(-n2c(C(C)C)c(-c3ccc(C(=O)O)cc3)c3c(O)cccc32)ccc1F    < 500 nM
CS(=O)(=O)NC(=O)c1ccc(-c2c(C3CCOCC3)n(-c3ccc(F)cc3)c3cccc(O)c23)cc1    > 2000 nM

Give measured EC50 for every item shown.
1. Cc1cc(-n2c(C3(C)COC3)c(-c3ccc(C(=O)O)cc3)c3c(O)cc(F)cc32)ccc1F
2. Cc1cc(-n2c(C3(C)CCCOC3)c(-c3ccc(C(=O)O)cc3)c3c(O)cc(F)cc32)ccc1F (stereo not drawn)
3. COCC(C)(C)c1c(-c2ccc(C(=O)O)c(F)c2F)c2c(O)cc(F)cc2n1-c1ccc(F)c(OC)c1
4. O=C(O)c1ccc(-c2c(C3CC4(COC4)C3)c3c(O)cc(F)cc3n2-c2ccc(F)c(F)c2)cc1
5. Cc1cc(-c2c(C3CCOCC3)n(-c3ccc(C(=O)O)cc3F)c3c(O)cccc23)ccc1F

["< 500 nM", "< 500 nM", "< 500 nM", "500 to 2000 nM", "< 500 nM"]

====

# target.under.test: purified Z-AAT protein (Homo sapiens, UniProt P01009, E366K)
# Construct: Purified Z-AAT protein from human plasma
# Sequence (P01009 25-418 E366K): as above
# test: Biochemical Assay (Z-AAT Elastase Activity Assay)
# experimental.parameters: purified Z-AAT pre-incubated with compound 1 hour, then hNE; N.D. = activity not detected up to 30 μM
endpoint: IC50

Reference set, count: 4
CC(=O)N1CCC(c2c(-c3ccc(C(=O)O)cc3)c3c(O)cccc3n2-c2ccc(F)cc2)C1 (stereo not drawn) [Compound 195]    > 30 µM
O=C(O)c1ncc(-c2c(C3CCOCC3)n(-c3ccc(F)cc3)c3cccc(O)c23)cc1F [Compound 72]    > 30 µM
COCC(C)(C)c1c(CCC(=O)O)c2c(O)cc(F)cc2n1-c1ccc(F)c(F)c1 [Compound 400]    2 to 5 µM
O=C(O)c1ccc(-c2c(C3CC4CCC(C3)O4)c3c(O)cc(F)cc3n2-c2ccc(F)c(F)c2)cc1 (stereo not drawn) [Compound 240]    > 30 µM

For each of the items listed, what is its IC50?
1. COc1cc(-n2c(C(C)(C)CC#N)c(-c3ccc(C(=O)O)cc3)c3c(O)c(F)ccc32)ccc1F [Compound 229]
2. Cc1cc(-n2c(C3(CC#N)CCC3)c(-c3ccc(C(=O)O)cc3)c3c(O)cc(F)cc32)ccc1F [Compound 327]
3. Cc1cc(-n2c(C(C)(C)CO)c(-c3ccc(C(=O)O)cc3)c3c(O)cccc32)ccc1F [Compound 168]
4. CC(C)(COC(F)F)c1c(-c2ccc(C(=O)O)cc2)c2c(O)cc(F)cc2n1-c1ccc(F)c(F)c1 [Compound 283]
5. COc1cc(-n2c(C(C)(C)CC#N)c(-c3cccc(C(=O)O)c3)c3c(O)cc(F)cc32)ccc1F [Compound 500]

1. < 2 µM
2. < 2 µM
3. > 5 µM
4. 2 to 5 µM
5. > 5 µM
